src = ChEMBL document CHEMBL5107996

Test: Ratio IC50 for antiproliferative activity against human HCT-116 cells expressing wild type MTAP to IC50 for antiproliferative activity against MTAP knockout human HCT-116 cells
MEASURED_METRIC: Ratio IC50
No unit in the answer, only the number.

Example results:
{"GIVEN_SMILES": "Cc1cc(-c2cnn(C)c2-c2sc3ccccc3c2C#N)cc2c(CN)n[nH]c(=O)c12", "Ratio IC50": 49}
{"GIVEN_SMILES": "Cn1ncc(-c2cc(C(F)F)c3c(=O)[nH]nc(CN)c3c2)c1-c1sc2ccccc2c1C#N", "Ratio IC50": 55}
{"GIVEN_SMILES": "Cn1ncc(-c2cc(Cl)c3c(=O)[nH]nc(CN)c3c2)c1-c1sc2ccccc2c1C#N", "Ratio IC50": 14}

Suppose we examine the molecule Cn1ncc(-c2cc([C@H]3CCCO3)c3c(=O)[nH]nc(CN)c3c2)c1-c1sc2ccccc2c1C#N ; what Ratio IC50 value has been reported?
2

Suppose we examine the molecule Cn1ncc(-c2ccc3c(=O)[nH]nc(CN)c3c2)c1-c1sc2ccccc2c1C#N ; what Ratio IC50 value has been reported?
100
